Assay: Toxicity liver stage against HepG2, at 10uM
Type: cell-based
Design: test concentration 10 uM, cell line HepG2-A16-CD81EGFP
Settings: human, HepG2-A16-CD81EGFP cells; read-out: INHIBITION
List of cytotoxicity at 10 µM values.
Don't forget the unit after the number, please.

Below: 5 compounds and their reported cytotoxicity at 10 µM.
compound | cytotoxicity at 10 µM
Cc1nc(CN(C)C(=O)Nc2cnn(CC3CCCO3)c2)cs1 (stereo unspecified) | 5.53%
O=C(c1nc2c(s1)CCCN2CC1CC1)N1CCOCC1 | 11.2%
CCc1noc(CNc2cccc(C(=O)N3CCSCC3)c2)n1 | -5.73%
O=C(O)C(c1ccc2c(c1)OCCO2)N1CCCCCC1 (stereo unspecified) | -3.26%
Cc1nnc([C@@]23CCO[C@@H]2CCN(Cc2nccs2)C3)o1 | -104%

// next item, cytotoxicity at 10 µM requested
Ask: Requested field: cytotoxicity at 10 µM. Item: COCCCN1CCC(CNc2nccc(-c3cnn(C)c3)n2)C1 (stereo unspecified)
Reply: -147%

---

Test: Toxicity liver stage against HepG2, at 10uM
Type: cell-based
Design: test concentration 10 uM, cell line HepG2-A16-CD81EGFP
Details: human, HepG2-A16-CD81EGFP cells; read-out: INHIBITION
List of cytotoxicity at 10 µM values.
Number in %, nothing else.

Below: 5 compounds and their reported cytotoxicity at 10 µM.
compound | measurement_unit | cytotoxicity at 10 µM
O=C(CCCC1CCCC1)NS(=O)(=O)CC1CC1 | % | -5.62
CC1CN(Cc2nc(Cc3ccccc3F)no2)CCN1C (centres undefined) | % | -7.44
O=S(=O)(Cc1ccccc1)NCCNc1ccc(-n2cccc2)nn1 | % | 10.8
Cc1nc(NCc2noc(C3CCCO3)n2)c2ccsc2n1 (centres undefined) | % | 49.9
CC(C(=O)Nc1nccs1)N(C)Cc1cccc(C#N)c1 (centres undefined) | % | 1.88

Ask: Requested field: cytotoxicity at 10 µM. Item: `Cc1nn(C)c(C)c1S(=O)(=O)N(CC(N)=O)CC(C)C`
Reply: 10.5

Ask: Can you check `CCc1noc(CNCCn2cc(C)cn2)n1` next?
Reply: -2.54

---

List of cytotoxicity at 10 µM values.
Assay: Toxicity liver stage against HepG2, at 10uM
Format: cell-based
Design: test concentration 10 uM, cell line HepG2-A16-CD81EGFP
Settings: human, HepG2-A16-CD81EGFP cells; read-out: INHIBITION
Number in %, nothing else.

Below: 5 compounds and their reported cytotoxicity at 10 µM.
compound | cytotoxicity at 10 µM, %
Cn1c(=O)oc2ccc(Nc3ncc(C#N)cc3Cl)cc21 | -1.21
Cc1ccccc1-c1noc(CN2CCC(N3CCNC3=O)CC2)n1 | 11.6
O=C1NCCN1C1CCN(Cc2coc(-c3ccc(F)cc3)n2)CC1 | -3.52
CCCC(=O)NCC1CCCN(Cc2cc(C)c(C)o2)C1 (centres undefined) | 8.82
Cc1nnc(CN2CCN(CCOc3ccccc3C#N)CC2)n1C | -5.8

Ask: Requested field: cytotoxicity at 10 µM. Item: `CCNC(=O)c1nnc2ccc(N3CCOCC3)cc2n1`
Reply: 3.56

Ask: Can you check `O=C(Nc1ccc(F)cc1)N1CCC(CO)(Nc2ccccc2)CC1` next?
Reply: 2.94

Ask: Can you check `O=C(NCCCOc1cccnc1)c1cn(Cc2ccccc2F)nn1` next?
Reply: 1.03

Ask: Can you check CC(O)(CN1CCN(CCO)CC1)c1cccc(C(F)(F)F)c1 (centres undefined) next?
Reply: -17.5
